# Tested on: SK-MEL-2 melanoma
# assayProcedure: NCI-60 one-dose screen, 48 h (100 = growth as untreated, 0 = no growth, -100 = all killed)
# recordedConditions: 10 µM unless noted
# Description: Growth inhibition of the SK-MEL-2 human tumor cell line is measured as a screen for anti-cancer activity. Cells are grown in 96 well plates and exposed to the test compound for 48 hours. Compounds are tested at a single concentration, which is 10^-5 M for most compounds. The reported endpoint is percent growth (GI% or GIPRCNT), where numbers from 0 - 100% represent growth inhibition, and numbers from -100% - 0 represent cell death. For example, a value of 40 represents 60% growth inhibition. […]
About 83,000 compounds went through this panel and 20% of them were active in at least one assay; those are over-represented in the sample as a whole.
measurementLabel: growth (%)
// return numeric value only (unit: %, not printed)

molecule | measured
CN(C)CCCC1(c2ccc(F)cc2)OCc2cc(-c3ccc4cc[nH]c4c3)ccc21 (centres undefined) | 87.6
Nc1ncnc2c1N=C(c1ccc3c(c1)OCO3)CC(c1cccc(Nc3ccnc4cc(C(F)(F)F)ccc34)c1)N2 (centres undefined) | 88
CCOC(=O)C(=CNc1cnc(Nc2ccc(N3CCOCC3)cc2)nc1Oc1ccc(OC)cc1)C(=O)OCC | 91.8

IN: Reported growth for C[C@]1(O)CC(=O)[C@]2(O)C3=C(C=C[C@]2(O)C1)C(=O)c1c(O)cccc1C3=O : what is it?
OUT: 89.7

The reported measurements were obtained from PubChem BioAssay (NCI).
